Test system: K24384-001-R-PDC complex spheroids, viability
Assay: Anticancer human tumor K24384-001-R-PDC patient-derived pancreatic adenocarcinoma cell line growth inhibition [GQUAD]
Settings: second compound 0.1 µM; first compound 0.316 µM; stronger effect = lower value
metric: viability, T/C (%)
Output spec: scalar in %, unitless text.

Examples with their reported viability, T/C follow.
compound: O=C(NO)c1cnc(N2CCN(S(=O)(=O)c3ccc4ccccc4c3)CC2)nc1 + CN(C)c1ccc(Nc2c3ccc(NC(=O)CCN4CCCC4)cc3nc3cc(NC(=O)CCN4CCCC4)ccc23)cc1
readout unit: %
viability, T/C: 70.1
--
compound: CCc1c2c(nc3ccc(O)cc13)-c1cc3c(c(=O)n1C2)COC(=O)[C@]3(O)CC + Cc1[nH]c2ccc(F)cc2c1-c1nc2c3cccnc3c3ncccc3c2[nH]1
readout unit: %
viability, T/C: 21.4

Continue with the compound presented below.
Name the recorded viability, T/C for COc1ncnc(C2CC2)c1-c1ncc2cnn(Cc3ccc(-c4nc(C(F)(F)F)cn4C(C)C)cc3)c2n1 + Cc1[nH]c2ccc(F)cc2c1-c1nc2c3cccnc3c3ncccc3c2[nH]1 .
103

====

Tested on: K24384-001-R-PDC complex spheroids, viability
Assay: Anticancer human tumor K24384-001-R-PDC cell line growth inhibition [GQUAD];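 also: spheroids exposed to compounds for seven days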
Details: second compound 3.16 µM; first compound 10 µM; stronger effect = lower value
metric: viability, T/C (%)
Kindly answer with a numeric value in %, unit omitted.

molecule: CC(C)n1c(=O)n(C)c2cnc3cc(F)c(-c4ccc(OCCCN5CCCCC5)nc4)cc3c21 + CN(C)c1ccc(Nc2c3ccc(NC(=O)CCN4CCCC4)cc3nc3cc(NC(=O)CCN4CCCC4)ccc23)cc1
target or test system: K24384-001-R-PDC complex spheroids, viability
metric: viability, T/C
readout unit: %
obs value: 48.7
//
molecule: CC1COCCN1c1cc(-c2ccnn2C)c2ccnc(-c3ccn[nH]3)c2n1 (stereo not given) + Cc1cnc(CNC(=O)c2c(=O)c3ccc(N4CCCN(C)CC4)nc3n3c2sc2ccccc23)cn1
target or test system: K24384-001-R-PDC complex spheroids, viability
metric: viability, T/C
readout unit: %
obs value: 19.2
//
molecule: CC1COCCN1c1cc(C2(S(C)(=N)=O)CC2)nc(-c2ccnc3[nH]ccc23)n1 (stereo not given) + Cc1cnc(CNC(=O)c2c(=O)c3ccc(N4CCCN(C)CC4)nc3n3c2sc2ccccc23)cn1
target or test system: K24384-001-R-PDC complex spheroids, viability
metric: viability, T/C
readout unit: %
obs value: 25.8

Item under review: CC1COCCN1c1cc(C2(O)CC3CCC(C2)O3)c2cnn(-c3ccn[nH]3)c2n1 (stereo not given) + Cc1[nH]c2ccc(F)cc2c1-c1nc2c3cccnc3c3ncccc3c2[nH]1 . Reported viability, T/C?
13.2

Would you mind doing CC(C)n1c(=O)n(C)c2cnc3cc(F)c(-c4ccc(OCCCN5CCCCC5)nc4)cc3c21 + Cc1cnc(CNC(=O)c2c(=O)c3ccc(N4CCCN(C)CC4)nc3n3c2sc2ccccc23)cn1 as well?
49.7

====

Measured viability, T/C, listed per entry for reference.
Tested on: K24384-001-R-PDC complex spheroids, viability
Test: Anticancer human tumor K24384-001-R-PDC cell line growth inhibition [GQUAD];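 also: spheroids exposed to compounds for seven days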
Settings: second compound 1 µM; first compound 0.1 µM; stronger effect = lower value
Source text: DNA G-quadruplex Stabilizer Agents in Combinations in Complex Spheroids A high-throughput screen of multi-cell type tumor spheroids was designed to identify active combinations of DNA G-quadruplex stabilizer agents and targeted small molecules. […] Compounds. […] If the clinical Cmax for an agent had not been determined, the highest concentration tested was 10 microM. […]

compound: COc1cccc2c1C(=O)c1c(O)c3c(c(O)c1C2=O)CC(O)(C(=O)CO)CC3OC1CC(N)C(O)C(C)O1 (stereo not given) + CN(C)c1ccc(Nc2c3ccc(NC(=O)CCN4CCCC4)cc3nc3cc(NC(=O)CCN4CCCC4)ccc23)cc1
viability, T/C: 53.8%
--
compound: Cc1cccc(N(C)C(=O)C2C(O)CCN2c2nc(C)cc(C(F)(F)F)c2C#N)c1 (stereo not given) + Cc1cnc(CNC(=O)c2c(=O)c3ccc(N4CCCN(C)CC4)nc3n3c2sc2ccccc23)cn1
viability, T/C: 44.4%
--
compound: CC(C)n1c(=O)n(C)c2cnc3cc(F)c(-c4ccc(OCCCN5CCCCC5)nc4)cc3c21 + Cc1[nH]c2ccc(F)cc2c1-c1nc2c3cccnc3c3ncccc3c2[nH]1
viability, T/C: 107%
--
compound: C=CC(=O)N1CCN(c2nc(=O)n(-c3c(C)ccnc3C(C)C)c3nc(-c4c(O)cccc4F)c(F)cc23)C(C)C1 (stereo not given) + Cc1[nH]c2ccc(F)cc2c1-c1nc2c3cccnc3c3ncccc3c2[nH]1
viability, T/C: 105%
--
compound: C=CCn1c(=O)c2cnc(Nc3ccc(N4CCN(C)CC4)cc3)nc2n1-c1cccc(C(C)(C)O)n1 + Cc1[nH]c2ccc(F)cc2c1-c1nc2c3cccnc3c3ncccc3c2[nH]1
viability, T/C: 71.9%

Please look up its viability, T/C: COc1ncnc(C2CC2)c1-c1ncc2cnn(Cc3ccc(-c4nc(C(F)(F)F)cn4C(C)C)cc3)c2n1 + Cc1[nH]c2ccc(F)cc2c1-c1nc2c3cccnc3c3ncccc3c2[nH]1
96.8%

Would you mind doing O=C(NO)c1cnc(N2CCN(S(=O)(=O)c3ccc4ccccc4c3)CC2)nc1 + CN(C)c1ccc(Nc2c3ccc(NC(=O)CCN4CCCC4)cc3nc3cc(NC(=O)CCN4CCCC4)ccc23)cc1 as well?
117%

Now the same for COc1cccc2c1C(=O)c1c(O)c3c(c(O)c1C2=O)CC(O)(C(=O)CO)CC3OC1CC(N)C(O)C(C)O1 (stereo not given) + Cc1[nH]c2ccc(F)cc2c1-c1nc2c3cccnc3c3ncccc3c2[nH]1
75.3%

Another: CC(=O)O[C@H]1C(=O)[C@@]2(C)[C@H]([C@H](OC(=O)c3ccccc3)[C@]3(O)C[C@H](OC(=O)[C@H](O)[C@@H](NC(=O)c4ccccc4)c4ccccc4)C(C)=C1C3(C)C)[C@]1(OC(C)=O)CO[C@@H]1C[C@@H]2O + CN(C)c1ccc(Nc2c3ccc(NC(=O)CCN4CCCC4)cc3nc3cc(NC(=O)CCN4CCCC4)ccc23)cc1
23.7%

Cool, now CC1COCCN1c1cc(-c2ccnn2C)c2ccnc(-c3ccn[nH]3)c2n1 (stereo not given) + CN(C)c1ccc(Nc2c3ccc(NC(=O)CCN4CCCC4)cc3nc3cc(NC(=O)CCN4CCCC4)ccc23)cc1
52%

====

System: K24384-001-R-PDC complex spheroids, viability
Experiment: Anticancer human tumor K24384-001-R-PDC cell line growth inhibition [GQUAD];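 also: spheroids exposed to compounds for seven days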
Conditions: second compound 3.16 µM; first compound 0.1 µM; stronger effect = lower value
# Lookup of reported viability, T/C keyed by entry
Write it as a number; the unit % goes unstated.

compound: Nc1ccn(C2OC(CO)C(O)C2(F)F)c(=O)n1 (stereo not drawn) + Cc1cnc(CNC(=O)c2c(=O)c3ccc(N4CCCN(C)CC4)nc3n3c2sc2ccccc23)cn1
viability, T/C [%]: 43.1

Request the reported viability, T/C associated with CC(C)(O)C1CCC(Nc2ccc3ncc(-c4cccc(C(F)(F)F)c4)n3n2)CC1 (stereo not drawn) + CN(C)c1ccc(Nc2c3ccc(NC(=O)CCN4CCCC4)cc3nc3cc(NC(=O)CCN4CCCC4)ccc23)cc1
101

Also CC1COCCN1c1cc(C2(S(C)(=N)=O)CC2)nc(-c2ccnc3[nH]ccc23)n1 (stereo not drawn) + Cc1[nH]c2ccc(F)cc2c1-c1nc2c3cccnc3c3ncccc3c2[nH]1 , if possible.
72.6

====

Tested on: K24384-001-R-PDC complex spheroids, viability
Test: Anticancer human tumor K24384-001-R-PDC cell line growth inhibition [GQUAD]; active = viability on the fitted dose curve at most 10% of control; inactive = the rest;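 also: spheroids exposed to compounds for seven days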
Details: second compound 3.16 µM; first compound 10 µM
Text: DNA G-quadruplex Stabilizer Agents in Combinations in Complex Spheroids A high-throughput screen of multi-cell type tumor spheroids was designed to identify active combinations of DNA G-quadruplex stabilizer agents and targeted small molecules. […] Compounds. […] If the clinical Cmax for an agent had not been determined, the highest concentration tested was 10 microM. […]
Valid outcomes are listed here; reply with one: active, inactive

Consider the following illustrative entries.
compound: COc1cc(C2c3cc4c(cc3C(OC3OC5COC(C)OC5C(O)C3O)C3COC(=O)C23)OCO4)cc(OC)c1O (stereo not drawn) + CN(C)c1ccc(Nc2c3ccc(NC(=O)CCN4CCCC4)cc3nc3cc(NC(=O)CCN4CCCC4)ccc23)cc1
assigned class: inactive
--
compound: COc1ccc([C@@H](O)c2cc(-c3ncnc4cc(N5CCOCC5)ccc34)c(F)cc2Cl)nn1 + CN(C)c1ccc(Nc2c3ccc(NC(=O)CCN4CCCC4)cc3nc3cc(NC(=O)CCN4CCCC4)ccc23)cc1
assigned class: inactive
--
compound: CC1COCCN1c1cc(-c2ccnn2C)c2ccnc(-c3ccn[nH]3)c2n1 (stereo not drawn) + Cc1[nH]c2ccc(F)cc2c1-c1nc2c3cccnc3c3ncccc3c2[nH]1
assigned class: inactive
--
compound: CC(C)(O)C1CCC(Nc2ccc3ncc(-c4cccc(C(F)(F)F)c4)n3n2)CC1 (stereo not drawn) + Cc1[nH]c2ccc(F)cc2c1-c1nc2c3cccnc3c3ncccc3c2[nH]1
assigned class: inactive
--
compound: CC(C)(O)C1CCC(Nc2ccc3ncc(-c4cccc(C(F)(F)F)c4)n3n2)CC1 (stereo not drawn) + Cc1cnc(CNC(=O)c2c(=O)c3ccc(N4CCCN(C)CC4)nc3n3c2sc2ccccc23)cn1
assigned class: active

For CCCS(=O)(=O)Nc1ccc(F)c(C(=O)c2c[nH]c3ncc(-c4ccc(Cl)cc4)cc23)c1F + CN(C)c1ccc(Nc2c3ccc(NC(=O)CCN4CCCC4)cc3nc3cc(NC(=O)CCN4CCCC4)ccc23)cc1 , which call appears in the assay record?
inactive

What do we get for O=c1[nH]cc(F)c(=O)[nH]1 + Cc1[nH]c2ccc(F)cc2c1-c1nc2c3cccnc3c3ncccc3c2[nH]1 ?
inactive

Consider next the compound COc1ncnc(C2CC2)c1-c1ncc2cnn(Cc3ccc(-c4nc(C(F)(F)F)cn4C(C)C)cc3)c2n1 + CN(C)c1ccc(Nc2c3ccc(NC(=O)CCN4CCCC4)cc3nc3cc(NC(=O)CCN4CCCC4)ccc23)cc1 in the same way.
inactive

Next record, please: O=C(c1cc(Cc2n[nH]c(=O)c3ccccc23)ccc1F)N1CCN(C(=O)C2CC2)CC1 + Cc1cnc(CNC(=O)c2c(=O)c3ccc(N4CCCN(C)CC4)nc3n3c2sc2ccccc23)cn1
inactive

# repeat for COc1cc(C2c3cc4c(cc3C(OC3OC5COC(C)OC5C(O)C3O)C3COC(=O)C23)OCO4)cc(OC)c1O (stereo not drawn) + Cc1[nH]c2ccc(F)cc2c1-c1nc2c3cccnc3c3ncccc3c2[nH]1
inactive

Input Nc1ccn(C2OC(CO)C(O)C2(F)F)c(=O)n1 (stereo not drawn) + Cc1cnc(CNC(=O)c2c(=O)c3ccc(N4CCCN(C)CC4)nc3n3c2sc2ccccc23)cn1
inactive

Same for O=c1[nH]cc(F)c(=O)[nH]1 + Cc1cnc(CNC(=O)c2c(=O)c3ccc(N4CCCN(C)CC4)nc3n3c2sc2ccccc23)cn1
inactive

Try this compound too: Cc1cccc(N(C)C(=O)C2C(O)CCN2c2nc(C)cc(C(F)(F)F)c2C#N)c1 (stereo not drawn) + Cc1[nH]c2ccc(F)cc2c1-c1nc2c3cccnc3c3ncccc3c2[nH]1
inactive
